Experiment: soluble fraction after stress (log2 fold change); higher = more stays soluble; pooled small domains, quantitative proteomics;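 note: 20 min heating vs room temperature control held 20 min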
Conditions: stress: 75 degC
soluble fraction (log2) values for the sequences below.
Answer with a number only.

HMREIEVNYAAGDSVRVIDGPLAGFIGVVSSVEPDKNKVNVTVSMFGRETPVELELDQVETLD: 0.111
HMDYRSMSGLQKAALLIMSVGEETAAKLFQLMHDDEIREISQTMANLGTVNATVIERLFVEFADAISS: -1.1
HMYLPLREVVFNALRTAIIHGEFKPGERLMEMHLAKSLGVSRTPVREAMRMLELEGLVVMIPKKGAEVAR: -2.93
HMANSLLVTAQAGGQKLFNFLKRSLHAENNEIHRWIRTGQVRINKKRTKAFDIVHENDEIRIPPFALNR: -0.444

Input: Query soluble fraction (log2) for HMDDHKQHLIDFYHSRKRMPTYTEMMALFGYKSKNAVARLVEKMIDAGIVTKDKLGKLLPTTLFDSVPL
Output: -0.00288

Input: Query soluble fraction (log2) for HMTPTFSNQDLIKAGLAGSPVAKRRRERLGELLGIGYGNAKQLLKRLDLFAIDRPTFERAVAQLDQEGK
Output: -0.465

Input: Query soluble fraction (log2) for HMQQRTVEHVDTAVEALALSIGERAGVDLPYMAHLTGKTQEDLIEDLTGVIFPVPGTEPLRYVTADDYLS
Output: 0.181

---

Assay: soluble fraction after stress (log2 fold change); higher = more stays soluble; pooled small domains, quantitative proteomics
Details: stress: 75 degC
soluble fraction (log2) values for the sequences below.
Answer with a number only.

Reference set, count: 5
HMTPGPFLVYITGAVERPNVLVTLDYGSRVIDALNAAGGSRIDANLDLVNLAQRLVDGDQIHVPTLR: -1.17
HMSDKPIFIDTAGIAALSAIGFSKYQATIIFNYIKKGGAIYTVKDLAKIYSIDQKTIDLTQSKIIFS: 0.365
HMTVPNVVGQRILAAQDILKNLGLKVLVDTNLPNSQWGLRNVKSTNPGAGAVVRVGDTVTLIAR: -0.441
HMNSSTYIVTFKVDGEEDIVETYQWGDRIIVPEVEAKDDYVFIGWDAQIPEFMPERNLEFTAI: -0.895
HMREISSDELHSLFSADQRGDLVINETTRLSIEKLYALHTPEEREAKVNELSGVLPSEAHRQLVHFLDYFD: -1.42

Input: Query soluble fraction (log2) for HMSIEHVPGYTTLSKREQEIVHALLTRKTPEELADDLSISINTLNKHISHIYHKLGIRGRMQLFDYA
Output: -1.1

Input: Query soluble fraction (log2) for HMSAMSPTEVGERLRLAREAVRMTQKQAADAISVARTTLVAIEQGQRRVRIDELQQLAKTYGVSVNAILR
Output: -2.27

Input: Query soluble fraction (log2) for HMAEVALFVNGSDVNLRSGPGQESTRVIGSLNLGDEVRIKSQNGQWREVYVPKTRQVGWVAHWLLSEAPP
Output: -0.535

Input: Query soluble fraction (log2) for HMELLTNPLTGREVEVLTLMALGQTNHEIARQLYLATGTVKAHTSSIYRKLDVANRTEAVARARQLGIL
Output: -2.32

---

soluble fraction (log2) values for the sequences below.
Assay: soluble fraction after stress (log2 fold change); higher = more stays soluble; pooled small domains, quantitative proteomics
Conditions: stress: 75 degC
Answer with a number only.

HMFFDKIIVDFLADGSRIDKYISTLYPDISRTHIQRLIAEQFILVNDSVVKSNYKLSTNDVVLIHIPEA: -3.01
HMAVIILDEPTLGLDPAVRISLWQAIQSARDSTMSAFLITTHYIKEVADYLSAVKILDHGREVASGNPSAL: -0.313
HMKEPGFAPPVRALAAAPITVLAQVAGTNPGEIRARLRAAGYPVASDQQSVQSLVGGDLKAQIGVLNRILA: -0.286
HMQEPIAVPDFINKSAVDVLVNPVFTQNFKLVSEDVYDDKVPEGYIVGQSVKSDTLVQPGTEIVIYV: 0.224

Input: Query soluble fraction (log2) for HMKETIIPELLQNELDKNSELNDKFNTFSPYKQREFIEYIITAKQEKTQISRLQKVILMILEGRGLNN
Output: -1.89

Input: Query soluble fraction (log2) for HMGVVEEVAADFEGRAVVGKVDVDEQTELARRFGIMSIPTLVVMKGGKVVEQAVGARGKADIAAMLERH
Output: 0.183

Input: Query soluble fraction (log2) for HMKRVTRQRTEILRVIDESERPLGPQEILQAGREAIPSLSIATIYRTLRDLLAEELIKTVALPGDSPRYES
Output: -1.33

Input: Query soluble fraction (log2) for HMPDAIPLETIIKNVNVLAGFLINSKTFTEDDIVMAYNNIMKIKGDHTDEKTLTNDVYTLLTEMN
Output: -0.714

Input: Query soluble fraction (log2) for HMKHAIKEKIRNEYVHGYLNEEGYRVMPTLDELIRKYEVPASSTYRASSKEGWKKQKEAFLEHLRGEIDA
Output: -0.492

Input: Query soluble fraction (log2) for HMINYSQKQLIAIQDELSKRFQALENESTKNNVTGFGVGLHYIDIDLIVNTPEKQKEFREKIMDSPAFRFN
Output: -0.893

Input: Query soluble fraction (log2) for HMQIDDSVELSAIVEKLLAANPEQVEQLKNGKTKVLGYFVGLAMKETQGRANPQKVNELIQTHL
Output: -0.519

Taken from the domain aggregation screens of Martell et al. (2025).
